System: Arrowhead
ASSAY EXPLANATION: weed control effect in transplanted rice field (pot, water application)
Assay type: in vivo, Sagittaria trifolia
REPORTED CONDITIONS: 500 g a.i./ha, treated at primary leaf stage, 14 days after treatment, naked eye, weed resistant to pyrazosulfuron-ethyl
READOUT NAME: weed control effect (activity level), Arrowhead

* CCOC(=O)Oc1c(C(=O)c2ccc(S(C)(=O)=O)c(Cn3cc(C)cn3)c2Cl)c(C)nn1C | 9 (above 90% growth inhibition rate)
* Cc1cc(C)n(Cc2c(S(C)(=O)=O)ccc(C(=O)c3c(C)nn(C)c3OCC(=O)OC(C)(C)C)c2Cl)n1 | 9 (above 90% growth inhibition rate)
* CCc1nn(C)c(O)c1C(=O)c1ccc(S(C)(=O)=O)c(Cn2cc(Cl)cn2)c1Cl | 10
* Cc1cnn(Cc2c(S(C)(=O)=O)ccc(C(=O)c3c(C)nn(C)c3O)c2Cl)c1 | 8 (above 80% growth inhibition rate)
* Cc1cc(C)n(Cc2c(S(C)(=O)=O)ccc(C(=O)c3c(C4CC4)nn(C)c3O)c2Cl)n1 | 9 (above 90% growth inhibition rate)
* Cc1ccc(S(=O)(=O)Oc2c(C(=O)c3ccc(S(C)(=O)=O)c(Cn4nc(C)cc4C)c3Cl)c(C)nn2C)cc1 | 10
* Cc1cc(C)n(Cc2c(S(C)(=O)=O)ccc(C(=O)c3c(C)nn(C)c3O)c2Cl)n1 | 9 (above 90% growth inhibition rate)
